Sourced from PubChem BioAssay (NCI)

System: NCI-H226 lung
EXPERIMENT: NCI-60 one-dose screen, 48 h (100 = growth as untreated, 0 = no growth, -100 = all killed)
CONDITION DETAILS: 10 µM unless noted
Procedure: Growth inhibition of the NCI-H226 human Non-Small Cell Lung tumor cell line is measured as a screen for anti-cancer activity. Cells are grown in 96 well plates and exposed to the test compound for 48 hours. Compounds are tested at a single concentration, which is 10^-5 M for most compounds. The reported endpoint is percent growth (GI% or GIPRCNT), where numbers from 0 - 100% represent growth inhibition, and numbers from -100% - 0 represent cell death. […]
This is part of a sample that, as a whole, favours compounds with a hit. Of some 83,000 tested, about 20% had one in any assay.
OBSERVABLE: growth (%)
Number only, in %; omit the unit.

The cases that follow already have their growth on record.
Problem: Would you mind telling me what growth value was observed for COc1ccc(C2=Nn3c(nnc3-n3nc(C)cc3C)SC2)cc1 ?
Result: 57.4

Problem: Same thing, different compound: COc1ccc(-c2nc(/C=N/Nc3cc(C)nc4ccc(Br)cc34)c(C)o2)cc1
Result: -37.4

Problem: Now this one: Cc1ccc(-c2cc3nc(C(Cl)Cl)nc(-c4ccccc4C)n3n2)cc1
Result: 100

Problem: Now give it for COc1cc(-c2nn(-c3cccc(NC(=O)Nc4ccc(Cl)c(C(F)(F)F)c4)c3)cc2-c2ccncc2)ccc1Cl too.
Result: 12.1

Problem: Please answer likewise for C=C(C)[C@@H]1C[C@@H]2Cc3cc(F)ccc3N1O2
Result: 99.1

***
Problem: Requested field: growth. Item: COc1cc(C2CC(c3ccc4c(c3)OCO4)=NN2C=O)cc(OC)c1OC (stereo unspecified)
Result: 58.3

###

System: OVCAR-5 ovarian
EXPERIMENT: NCI-60 one-dose screen, 48 h (100 = growth as untreated, 0 = no growth, -100 = all killed)
CONDITION DETAILS: 10 µM unless noted
Compounds without any hit were thinned out: in the full panel of roughly 83,000, 20% have a hit.
For each record, check the reported growth: if it is below 90% write true (1), else write false (0).

Worked examples, 4 compounds total:
Problem: Threshold test, growth < 90%: C=C[C@@H]1C[C@@H]2Cc3ccccc3N1O2
Result: false (0)

Problem: And the next one, C=C(C)[C@@H]1CC[C@]2(C(=O)O)CC[C@]3(C)[C@H](CC[C@@H]4[C@@]5(C)C[C@@H](CC#Cc6ccc(C(F)(F)F)cc6)[C@H](O)C(C)(C)[C@@H]5CC[C@]43C)[C@@H]12 ?
Result: true (1)

Problem: Consider next the compound CC(C)(C)Nc1c(-c2cccs2)nc2ncccn12 in the same way.
Result: false (0)

Problem: Now try C=C1CCC2C(C)(CO)C(O)CCC2(C)C1C/C=C1/C(=O)OCC1O/C=C/c1ccccc1 (stereo not given) .
Result: false (0)

---
Problem: Strictly below 90%: is that where growth of COc1cc(-c2ncn(/C=C\C(=O)OC(C)C)n2)cc(C(F)(F)F)c1 sits?
Result: true (1)

###

Test system: HCT-15 colon
EXPERIMENT: NCI-60 one-dose screen, 48 h
CONDITION DETAILS: 10 µM unless noted
Compounds without any hit were thinned out: in the full panel of roughly 83,000, 20% have a hit. The source made the active and inactive calls. The calls were made as follows: active = growth percent below 10; inactive = the rest.
Respond only with the outcome that fits, drawn from YES for active, NO for inactive

# count of solved cases: 3
Problem: Hey, what did the test say about O=C(Nc1ccc2c(c1)OCO2)C(=O)c1c[nH]c2cc(F)ccc12 ?
Result: NO

Problem: Please answer likewise for CC(C)(C)n1cc(-c2ccnc(NCCCNS(=O)(=O)c3ccccc3)c2)c(-c2cccc(O)c2)n1
Result: YES

Problem: Another compound to look at: O=C1/C(=C/c2ccccc2)CN(C(=O)CCN2CCC(=NO)CC2)C/C1=C\c1ccccc1
Result: YES

For the next question, use this compound.
Problem: Dear colleague, could you share the recorded outcome for O=C1c2ccccc2-c2ccccc2C1(Cl)Cl when you have a moment?
Result: YES
